- target-system: Tryptophan 2,3-dioxygenase (Homo sapiens)
- Sequence (P48775 whole entry): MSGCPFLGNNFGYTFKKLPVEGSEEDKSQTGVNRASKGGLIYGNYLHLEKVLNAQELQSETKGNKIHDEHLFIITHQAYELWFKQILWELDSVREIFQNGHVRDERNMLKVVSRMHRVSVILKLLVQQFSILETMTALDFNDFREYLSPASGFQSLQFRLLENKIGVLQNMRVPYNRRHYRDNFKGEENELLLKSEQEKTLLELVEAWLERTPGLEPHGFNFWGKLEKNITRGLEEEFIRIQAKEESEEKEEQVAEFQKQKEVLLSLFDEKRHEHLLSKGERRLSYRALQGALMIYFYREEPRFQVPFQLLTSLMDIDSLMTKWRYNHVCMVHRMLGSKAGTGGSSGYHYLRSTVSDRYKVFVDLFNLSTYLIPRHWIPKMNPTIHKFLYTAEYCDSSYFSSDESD
- assay-procedure: Inhibition of recombinant human TDO assessed as N-formylkynurenine formation using L-tryptophan as substrate measured after 1 hrs by UV-vis spectrophotometric analysis
property-label: pIC50
Expect pIC50 as a plain number equal to -log10 of the molar concentration.

Consider the reported pIC50 for these compounds:
O=[N+]([O-])c1ccc(N/C(=N\O)c2ccccc2Br)c2nonc12: 4.60
O=[N+]([O-])c1ccc(N/C(Cc2ccc(Cl)cc2)=N\O)c2nonc12: 4.29
O=[N+]([O-])c1ccc(N/C(=N\O)c2cccc(Br)c2)c2nonc12: 4.70
O=[N+]([O-])c1ccc(N/C(Cc2ccccc2F)=N\O)c2nonc12: 4.52
O=[N+]([O-])c1ccc(N/C(Cc2ccc(Cl)c(Cl)c2)=N\O)c2nonc12: 4.49
O=[N+]([O-])c1ccc(N/C(=N\O)c2ccc(F)cc2)c2nonc12: 4.68
O=[N+]([O-])c1ccc(N/C(=N\O)c2ccccc2F)c2nonc12: 3.96
O=[N+]([O-])c1ccc(N/C(Cc2ccc(Br)cc2)=N\O)c2nonc12: 4.37

Request the reported pIC50 associated with "O=[N+]([O-])c1ccc(N/C(Cc2ccc(F)cc2F)=N\O)c2nonc12"
4.72

Any idea what its pIC50 is? The compound is "O=[N+]([O-])c1ccc(N/C(=N\O)c2cccc(F)c2)c2nonc12"
4.35

* * *

- target-system: UniProt:P14902
- assay-procedure: Inhibition of recombinant human IDO1 assessed as N-formylkynurenine formation using L-tryptophan as substrate measured after 1 hr by UV-vis spectrophotometric analysis
Threshold 100 nM. IC50 below it: True. IC50 at it or above: False.

Use the examples below as a reference point.
O=[N+]([O-])c1ccc(N/C(=N\O)c2cccc(Cl)c2)c2nonc12: False
O=[N+]([O-])c1ccc(N/C(Cc2ccc(Br)cc2)=N\O)c2nonc12: False
Cc1cccc(/C(=N/O)Nc2ccc([N+](=O)[O-])c3nonc23)c1: False
O=[N+]([O-])c1ccc(N/C(Cc2cccc(F)c2)=N\O)c2nonc12: False

In the record for "O=[N+]([O-])c1ccc(N/C(=N\O)c2ccc(F)c(Br)c2)c2nonc12" , is IC50 less than 100 nM?
True

For "O=[N+]([O-])c1ccc(N/C(=N\O)c2ccc(Br)cc2)c2nonc12" , is the recorded IC50 below the cut-off of 100 nM?
False

Lab note: IC50 threshold 100 nM. Does this compound come in strictly under it? "O=[N+]([O-])c1ccc(N/C(=N\O)c2ccccc2F)c2nonc12"
True

Say whether its IC50 is strictly beneath 100 nM. Entry: "Cc1ccc(/C(=N/O)Nc2ccc([N+](=O)[O-])c3nonc23)cc1"
False

Does the reported IC50 of the following compound sit strictly below 100 nM? "COc1ccc(C/C(=N/O)Nc2ccc([N+](=O)[O-])c3nonc23)cc1"
False

* * *

- target-system: Indoleamine 2,3-dioxygenase 1 (Homo sapiens)
- assay-procedure: Inhibition of recombinant human IDO1 assessed as N-formylkynurenine formation using L-tryptophan as substrate measured after 1 hr by UV-vis spectrophotometric analysis
property-label: pIC50
Remember the convention: pIC50 equals -log10 of concentration in molar.

Examples with their reported pIC50 follow.
O=[N+]([O-])c1ccc(N/C(=N\O)c2cccc(Br)c2)c2nonc12: 6.98
O=[N+]([O-])c1ccc(N/C(Cc2ccc(Cl)c(Cl)c2)=N\O)c2nonc12: 7.41
O=[N+]([O-])c1ccc(N/C(Cc2ccc(F)cc2)=N\O)c2nonc12: 7.01

# pIC50 lookup, item "O=[N+]([O-])c1ccc(N/C(=N\O)c2ccc(F)cc2)c2nonc12"
7.00

Give the measured pIC50 of "O=[N+]([O-])c1ccc(N/C(Cc2ccccc2)=N\O)c2nonc12" .
6.51

* * *

- target-system: Indoleamine 2,3-dioxygenase 1 (Homo sapiens, UniProt P14902)
- Sequence (P14902 whole entry): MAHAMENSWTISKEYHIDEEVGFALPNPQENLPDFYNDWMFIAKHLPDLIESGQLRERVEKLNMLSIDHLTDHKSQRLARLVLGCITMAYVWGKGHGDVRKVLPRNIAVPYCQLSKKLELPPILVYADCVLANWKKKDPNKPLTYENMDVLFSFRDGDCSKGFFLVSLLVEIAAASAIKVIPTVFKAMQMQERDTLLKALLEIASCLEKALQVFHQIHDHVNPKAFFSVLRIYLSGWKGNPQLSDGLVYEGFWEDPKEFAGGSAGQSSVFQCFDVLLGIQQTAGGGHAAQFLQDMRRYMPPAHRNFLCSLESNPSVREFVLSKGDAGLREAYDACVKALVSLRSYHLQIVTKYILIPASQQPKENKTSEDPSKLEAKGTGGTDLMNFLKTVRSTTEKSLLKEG
- assay-procedure: Inhibition of human IDO1 in IFN-gamma-induced human MDA-MB-231 cells assessed as N-formylkynurenine formation using L-tryptophan as substrate pretreated for 4 hrs followed substrate addition measured after 5 hrs by UV-vis spectrophotometric analysis
- Assay type: cell-based
property-label: pIC50
Lab note — pIC50 values are minus log10 of concentrations in M.

O=[N+]([O-])c1ccc(N/C(=N\O)c2ccc(F)cc2)c2nonc12: 6.90

Quick check: pIC50 of "O=[N+]([O-])c1ccc(N/C(Cc2ccc(F)c(F)c2)=N\O)c2nonc12" ?
7.30

// lookup pIC50 for "O=[N+]([O-])c1ccc(N/C(Cc2ccc(Cl)cc2)=N\O)c2nonc12"
6.96

Give the measured pIC50 of "O=[N+]([O-])c1ccc(N/C(=N\O)c2ccc(F)c(Br)c2)c2nonc12" .
6.97

What value of pIC50 has been reported for the following molecule? "O=[N+]([O-])c1ccc(N/C(=N\O)c2cccc(F)c2)c2nonc12"
6.61

Bench note: what pIC50 did "O=[N+]([O-])c1ccc(N/C(Cc2ccccc2F)=N\O)c2nonc12" show?
6.88

What value of pIC50 has been reported for the following molecule? "O=[N+]([O-])c1ccc(N/C(Cc2ccc(F)cc2)=N\O)c2nonc12"
6.82

# lookup: pIC50 of "O=[N+]([O-])c1ccc(N/C(Cc2ccc(Cl)c(Cl)c2)=N\O)c2nonc12"
7.15

Bench note: what pIC50 did "O=[N+]([O-])c1ccc(N/C(=N\O)c2ccccc2Br)c2nonc12" show?
7.18

Query: pIC50; subject: "O=[N+]([O-])c1ccc(N/C(=N\O)c2ccccc2F)c2nonc12"
6.88

* * *

- target-system: Indoleamine 2,3-dioxygenase 1 (Homo sapiens)
- assay-procedure: Inhibition of recombinant human IDO1 assessed as N-formylkynurenine formation using L-tryptophan as substrate measured after 1 hr by UV-vis spectrophotometric analysis
A collection of compounds and their measured pIC50
The quantity pIC50 is defined as the negative base-10 logarithm of the molar concentration.

O=[N+]([O-])c1ccc(N/C(=N\O)c2ccc(Cl)cc2)c2nonc12: 6.95
O=[N+]([O-])c1ccc(N/C(Cc2ccc(F)c(F)c2)=N\O)c2nonc12: 7.23
O=[N+]([O-])c1ccc(N/C(=N\O)c2ccccc2Br)c2nonc12: 7.10
O=[N+]([O-])c1ccc(N/C(=N\O)c2cccc(F)c2)c2nonc12: 7.12

Suppose we examine the compound "O=[N+]([O-])c1ccc(N/C(Cc2ccc(Cl)cc2)=N\O)c2nonc12" ; what pIC50 value has been reported?
6.90

# get_value(readout='pIC50', item= "O=[N+]([O-])c1ccc(N/C(=N\O)c2ccccc2)c2nonc12" )
6.57

# get_value(readout='pIC50', item= "O=[N+]([O-])c1ccc(N/C(Cc2cccc(Cl)c2)=N\O)c2nonc12" )
6.70

Given "O=[N+]([O-])c1ccc(N/C(Cc2ccc(F)cc2F)=N\O)c2nonc12" , state its recorded pIC50.
6.80

Fill in the blank: the reported pIC50 of "O=[N+]([O-])c1ccc(N/C(=N\O)c2ccc(F)c(Cl)c2)c2nonc12" is ____.
6.80

Reported pIC50, compound "O=[N+]([O-])c1ccc(N/C(=N\O)c2ccccc2Cl)c2nonc12" : ____
6.87

* * *

- target-system: Tryptophan 2,3-dioxygenase (Homo sapiens)
- assay-procedure: Inhibition of recombinant human TDO assessed as N-formylkynurenine formation using L-tryptophan as substrate measured after 1 hrs by UV-vis spectrophotometric analysis
property-label: IC50 (µM)
The reply should contain only the number, in µM.

O=[N+]([O-])c1ccc(N/C(=N\O)c2ccc(Cl)cc2)c2nonc12: 40
O=[N+]([O-])c1ccc(N/C(=N\O)c2ccc(F)c(Br)c2)c2nonc12: 47
O=[N+]([O-])c1ccc(N/C(=N\O)c2ccc(Br)cc2)c2nonc12: 50
O=[N+]([O-])c1ccc(N/C(Cc2ccc(F)c(F)c2)=N\O)c2nonc12: 94
Nc1nonc1C(=NO)Nc1ccc(F)c(Cl)c1: 24

// next item, IC50 requested
Item under review: "O=[N+]([O-])c1ccc(N/C(Cc2ccc(F)cc2)=N\O)c2nonc12" . Reported IC50?
65

* * *

- target-system: UniProtKB P14902
- assay-procedure: Inhibition of recombinant human IDO1 assessed as N-formylkynurenine formation using L-tryptophan as substrate measured after 1.5 hrs by HPLC analysis
Measured IC50, listed per entry for reference.
Express it in µM; write the number only.

O=[N+]([O-])c1ccc(N/C(=N\O)c2ccccc2Br)c2nonc12: 0.064
O=[N+]([O-])c1ccc(N/C(Cc2ccccc2F)=N\O)c2nonc12: 0.075

Field request: IC50 | item: "O=[N+]([O-])c1ccc(N/C(Cc2ccc(F)c(F)c2)=N\O)c2nonc12"
0.049

Could you tell me which IC50 is on file for "O=[N+]([O-])c1ccc(N/C(=N\O)c2cccc(F)c2)c2nonc12" ?
0.084
